test system: Lsali-1
// log10 of MIC lookup, one value per entry
# values: log10(MIC), units µg/mL

CCC[C@@H]1C[C@@H](C(=O)N[C@@H]([C@H]2O[C@H](SC)[C@H](O)[C@@H](O)[C@H]2O)[C@H](C)Cl)N(C)C1	0.90
[H]/N=C(/N)N[C@H]1[C@H](O)[C@@H](O)[C@H](O[C@@H]2O[C@@H](C)[C@](O)(C=O)[C@H]2O[C@@H]2O[C@@H](CO)[C@H](O)[C@@H](O)[C@@H]2NC)[C@@H](N/C(N)=N\[H])[C@@H]1O	2.11
NC[C@H]1O[C@H](O[C@H]2[C@H](O)[C@@H](O[C@H]3O[C@H](CO)[C@@H](O)[C@H](N)[C@H]3O)[C@H](N)C[C@@H]2N)[C@H](O)[C@@H](O)[C@@H]1O	2.41
O=C(N[C@H](CO)[C@H](O)c1ccc([N+](=O)[O-])cc1)C(Cl)Cl	2.41
CC[C@H]1OC(=O)[C@H](C)[C@@H](O[C@H]2C[C@@](C)(OC)[C@@H](O)[C@H](C)O2)[C@H](C)[C@@H](O[C@@H]2O[C@H](C)C[C@H](N(C)C)[C@H]2O)[C@](C)(O)C[C@@H](C)C(=O)[C@H](C)[C@@H](O)[C@]1(C)O	-0.90

Noted for CC1(C)S[C@@H]2[C@H](NC(=O)[C@H](N)c3ccccc3)C(=O)N2[C@H]1C(=O)O : its log10 of MIC reads 0.60

Noted for CN(C)[C@@H]1C(O)=C(C(N)=O)C(=O)[C@@]2(O)C(O)=C3C(=O)c4c(O)cccc4[C@@](C)(O)[C@H]3C[C@@H]12 : its log10 of MIC reads -0.30
